# ASSAY NOTES: cytotoxicity in HPDE-C7 cells, cell-based, fluorescence, HTS (AID 430);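 note: cells exposed to compound for 48 hours before viability readout; 0% = vehicle and 100% = reference cytotoxic drug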
# CONDITION INFO: HPDE-C7 pancreatic duct cells viability, at 10 µM
The whole screen tested about 63,000 compounds, of which about 1,100 (1.7%) were called active. Cut-off read from the data, not from the text of the source: active = cytotoxicity above about 50%; inactive = the rest. Shown is part of a subset that was picked to be rich in actives. Results with a measured potency or affinity are listed apart.
Choose one outcome from this list and give only that: active, inactive

{"COMPOUND": "COc1ccc(OC)c(NC(=O)C2=C(C)Nc3ncnn3C2c2cccs2)c1 (stereo unspecified)", "CLASSIFICATION": "inactive"}
{"COMPOUND": "CN1C(=O)C(O)(CC(=O)c2cccc(-n3cccc3)c2)c2ccccc21 (stereo unspecified)", "CLASSIFICATION": "inactive"}
{"COMPOUND": "COC(=O)c1ccc(C(=O)OC)c(NC(=O)c2cnc3n(c2=O)CCS3)c1", "CLASSIFICATION": "inactive"}
{"COMPOUND": "CCN(c1cccc(C(F)(F)F)c1)S(=O)(=O)c1ccc2c(c1)CCN2C(C)=O", "CLASSIFICATION": "active"}
{"COMPOUND": "COC(=O)CN1C(=O)CC(C)(C)S(=O)c2ccccc21 (stereo unspecified)", "CLASSIFICATION": "inactive"}
{"COMPOUND": "CCC(=O)N1CC23C=CC(CC2CC12CCCCC2)O3 (stereo unspecified)", "CLASSIFICATION": "inactive"}
{"COMPOUND": "CSc1nc(-c2ccco2)cc(-c2ccccc2)c1C#N", "CLASSIFICATION": "inactive"}
{"COMPOUND": "CCN(c1cccc(C(F)(F)F)c1)S(=O)(=O)c1ccc2c(c1)CCN2C(=O)C1CC1", "CLASSIFICATION": "inactive"}

## Input What call does the record list for CCOc1ccccc1OCCCCN1CCCC1 ?
## Output inactive

## Input Follow-up item: COCCNS(=O)(=O)c1cccc2cccnc12
## Output inactive

## Input Follow-up item: Cc1cc(-c2ccccc2)c(C#N)c(N)n1
## Output inactive

----------
# ASSAY NOTES: cytotoxicity in HPDE-C7 cells, cell-based, fluorescence, HTS (AID 430);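 note: cells exposed to compound for 48 hours before viability readout; 0% = vehicle and 100% = reference cytotoxic drug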
# CONDITION INFO: HPDE-C7 pancreatic duct cells viability, at 10 µM, stronger effect = higher value
About 1,100 (1.7%) of roughly 63,000 compounds were called active. The full list was thinned out, with actives kept by preference. Results with a measured potency or affinity are listed apart.
READOUT NAME: cytotoxicity (%)
Just the number in %, nothing appended.

Use these answered entries as a reference point.
{"COMPOUND": "COc1ccc(C)cc1S(=O)(=O)N(CC(=O)O)c1ccccc1", "cytotoxicity (%)": -0.9}
{"COMPOUND": "Cc1nnc(SCc2ccc(F)cc2)s1", "cytotoxicity (%)": 105}
{"COMPOUND": "Cc1cc(C(=O)COC(=O)C2=COCCO2)c(C)n1-c1ccc2c(c1)OCO2", "cytotoxicity (%)": -7.4}
{"COMPOUND": "Cc1nc2sc3c(c2c(=O)o1)CCC3", "cytotoxicity (%)": 4.8}
{"COMPOUND": "Cc1nn(-c2ccccc2)c(OC(=O)c2cccs2)c1S(=O)(=O)c1ccccc1", "cytotoxicity (%)": -5.8}

## Input Name the reported cytotoxicity value associated with the compound O=c1oc(-c2cccs2)nc2sc3c(c12)CCCCC3
## Output 52

## Input Follow-up item: CCOC(=O)N1CCN(S(=O)(=O)c2ccc(C(=O)Nc3nc4ccc(F)cc4s3)cc2)CC1
## Output -8

## Input Follow-up item: Cc1ccc(CS(=O)(=O)Cc2ccc(C(=O)NCc3ccco3)o2)cc1
## Output -21
